# EXPERIMENTAL TARGET: T1, recombinant human LAG3(ECD)-his (Sino Biological, Cat #: 16498-H08H) (human, UniProt P18627 23-450)
# T1 construct: extracellular domain; Bought protein; not shown: his tag
# T1 sequence (looked up): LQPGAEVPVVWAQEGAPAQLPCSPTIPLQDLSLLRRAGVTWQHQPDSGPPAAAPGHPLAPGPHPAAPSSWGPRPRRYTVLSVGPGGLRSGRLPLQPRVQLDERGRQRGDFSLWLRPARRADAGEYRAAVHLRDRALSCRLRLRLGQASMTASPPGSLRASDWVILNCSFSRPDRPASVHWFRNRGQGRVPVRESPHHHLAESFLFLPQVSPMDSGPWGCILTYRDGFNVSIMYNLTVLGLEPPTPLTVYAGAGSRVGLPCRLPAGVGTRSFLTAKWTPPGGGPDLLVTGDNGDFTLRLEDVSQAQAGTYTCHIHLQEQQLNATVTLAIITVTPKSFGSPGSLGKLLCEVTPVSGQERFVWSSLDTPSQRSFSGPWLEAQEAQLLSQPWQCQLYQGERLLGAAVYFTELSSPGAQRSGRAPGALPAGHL
# EXPERIMENT SUMMARY: SPR (BIAcore 8K), human LAG3(ECD)-his coupled to chip, antibody injected, 1:1 Langmuir
# Method: Serially diluted antibodies at concentrations ranging from 0.3 μM to 10 μM were injected into the SPR running buffer (HBS-EP buffer, pH7.4, GE Life Sciences; US; Cat #: BR-1006-69) at 30 μL/minute. The binding capacities were calculated with the RUs of blank controls subtracted. The association rate (Ka) and dissociation rate (Kd) were calculated using the one-to-one Langmuir binding model (BIA Evaluation Software, GE Life Sciences). […]

{"BINDER": "humanized (with affinity maturation) antibody 101F4H2L2-8 (antibody, human IgG4 S228P, kappa, V domains shown) VH: QVQLVQSGAEVKKPGASVKVSCKVSGYTFTDYEMHWVRQAPGKGLEWMGAIDPETGGIVYNQRFKGRVTLTADTSTDTAYMELSSLRSEDTAVYYCATTGWNDWGQGTTVTVSS VL: DIQMTQSPSSLSASVGDRVTITCKASQDINSYLSWYQQKPGKAPKLLIYRANRLLDGVPSRFSGSGSGQDYTLTISSLQPEDFATYYCQQYDEFPFTFGQGTKLEIKR", "Kd [nM]": 2.05}
